Structures can show the parent of a compound that is named as a salt.
Listed compounds paired with reported melting point

Below: 5 compounds and their reported melting point.
Compound	melting point
CCCCC(=O)c1ccc(-c2cc3ccsc3c(N3CCN(CC)CC3)n2)cc1 (as salt: hydrochloride) [Example 271, dihydrochloride]	109 to 114 °C
CCN1CCN(c2nc(-c3cc(F)c(OCCOC)c(F)c3)cc3ccccc23)CC1 (as salt: hydrochloride) [Example 368, dihydrochloride]	110 to 112 °C
CCN1CCN(c2nc(-c3ccc(S(=O)(=O)CC)cc3)cc3ccsc23)CC1 (as salt: hydrochloride) [Example 450, dihydrochloride]	230 to 232 °C (dec.)
CCCS(=O)(=O)c1ccc(-c2cc3ccccc3c(N3CCN(CCO)CC3)n2)cc1 (as salt: oxalate)	127 to 129 °C
CCN1CCN(c2nc(/C=C/c3cc(N4CCOCC4)ncn3)cc3ccccc23)CC1 (as salt: oxalate)	130 to 134 °C

Given CCN1CCN(c2nc(-c3ccc(S(=O)(=O)N4CCSCC4)cc3)cc3ccccc23)CC1 (as salt: hydrochloride) , state its recorded melting point.
268 to 270 °C (dec.)

Then CCN1CCN(c2nc(-c3ccc(CCCO)cc3)cc3ccoc23)CC1 (as salt: hydrochloride) [Example 299, dihydrochloride] ?
126 to 130 °C

Then CCN1CCN(c2nc(/C=C/c3ccc(N4CCOCC4)cc3)cc3ccccc23)CC1 (as salt: oxalate) ?
248 to 250 °C

Then CCN1CCN(c2nc(-c3ccc(S(=O)(=O)NC4CC4)cc3)cc3ccccc23)CC1 (as salt: hydrochloride) [Example 363, dihydrochloride] ?
158 to 159.5 °C

Then CCN1CCN(c2nc(C(O)c3cccnc3)cc3ccccc23)CC1 (stereo not shown) (as salt: oxalate) ?
174 to 175 °C

====

Listed compounds paired with reported melting point
Where a name gives a salt, the structure may show the parent alone.

Compound	melting point
CCN1CCN(c2nc(-c3ccc(C(=O)NC4CCCC4)cc3)cc3ccsc23)CC1 (as salt: hydrochloride) [Example 453, dihydrochloride]	148 to 149 °C
CCN1CCN(c2nc(-c3ccc(CCCO)nc3)cc3ccsc23)CC1 (as salt: hydrochloride)	204 to 205 °C
CCN1CCN(c2nc(-c3ccc(C4=CCOCC4)nc3)cc3ccccc23)CC1 (as salt: oxalate)	156 to 159 °C
CCN1CCN(c2nc(-c3ccc(OCCCO)cc3)cc3sccc23)CC1 (as salt: hydrochloride) [Example 462, dihydrochloride]	102 to 104 °C

Given CCN1CCN(c2nc(-c3cc(OC)ccn3)cc3ccccc23)CC1 (as salt: hydrochloride) [Example 335, dihydrochloride] , state its recorded melting point.
172 to 173 °C (dec.)

Then COc1ccc(-c2cc3ccccc3c(N3CCN(C4CC4)CC3)n2)cc1 (as salt: hydrochloride) [Example 239, dihydrochloride] ?
138 to 143 °C

====

Listed compounds paired with reported melting point
Where a name gives a salt, the structure may show the parent alone.

Compound	Result
CCN1CCN(c2nc(-c3ccc(CO)cc3)cc3ccccc23)CC1 (as salt: hydrochloride) [Example 17]	145 to 147 °C
CCN1CCN(c2nc(-c3ccc(CCCCO)cc3)cc3ccccc23)CC1 (as salt: hydrochloride) [Example 23]	140 to 144 °C
CCN1CCN(c2nc(-c3ccc(N4CCSCC4)nc3)cc3ccccc23)CC1 (as salt: hydrochloride) [Example 150, trihydrochloride]	210 °C
CCN1CCN(c2nc(-c3ccc(OC)cc3)cc3ccc(C)cc23)CC1 (as salt: hydrochloride)	243 to 246 °C

Given CCN1CCN(c2nc(-c3ccc(C(=O)NC)cc3)cc3ccsc23)CC1 (as salt: hydrochloride) , state its recorded melting point.
150.5 to 152 °C

Then CCCCNC(=O)Cc1ccc(-c2cc3ccccc3c(N3CCN(CC)CC3)n2)cc1 (as salt: hydrochloride) [Example 89] ?
133 to 136 °C

Hello, the source for this data is patent US6875761B2, in case you need it.
